Source: paper PMC8307404

# target_system: MKK6 (Homo sapiens)
# Sequence (P52564 1-334): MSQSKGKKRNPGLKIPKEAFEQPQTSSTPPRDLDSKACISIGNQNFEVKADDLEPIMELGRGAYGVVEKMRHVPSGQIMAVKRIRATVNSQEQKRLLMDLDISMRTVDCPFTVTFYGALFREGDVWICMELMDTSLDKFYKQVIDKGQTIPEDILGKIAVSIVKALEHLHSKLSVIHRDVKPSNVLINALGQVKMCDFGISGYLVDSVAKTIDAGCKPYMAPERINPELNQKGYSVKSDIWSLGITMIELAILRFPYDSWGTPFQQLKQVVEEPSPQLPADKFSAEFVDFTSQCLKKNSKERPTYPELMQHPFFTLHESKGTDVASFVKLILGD
# method_summary: Kinase profiling (radiometric filter-binding)
# Assay type: biochemical
# condition_notes: MKK6, 1 µM inhibitor; read-out: Residual activity, %
endpoint: remaining activity at 1 µM
The answer consists of two parts: a number and, after it, its unit.

N=C(N)NCCC[C@@H](NC(=O)CNC(=O)[C@@H](CCCNC(=N)N)NC(=O)[C@@H](CCCNC(=N)N)NC(=O)Cn1cc(CNCc2nc3c(sc4ccc(Br)cc43)c(=O)[nH]2)nn1)C(=O)N[C@H](CCCCN)C(N)=O | 126%

Quick check: remaining activity at 1 µM of N=C(N)NCCC[C@@H](NC(=O)CNC(=O)[C@@H](CCCNC(=N)N)NC(=O)[C@@H](CCCNC(=N)N)NC(=O)CCCCCCCNCc1nc2c(sc3ccc(Br)cc32)c(=O)[nH]1)C(=O)N[C@H](CCCCN)C(N)=O ?
121%

Quick check: remaining activity at 1 µM of N=C(N)NCCC[C@@H](NC(=O)CCCCCNC(=O)Cn1cnc2c(I)c(I)c(I)c(I)c21)C(=O)N[C@H](CCCNC(=N)N)C(=O)N[C@H](CCCNC(=N)N)C(=O)N[C@H](CCCNC(=N)N)C(=O)N[C@H](CCCNC(=N)N)C(=O)N[C@H](CCCNC(=N)N)C(=O)N[C@H](CCCCN)C(N)=O ?
110%

---

# remaining activity at 1 µM annotations
# target_system: NUAK1 (Homo sapiens)
# Sequence (O60285 1-661): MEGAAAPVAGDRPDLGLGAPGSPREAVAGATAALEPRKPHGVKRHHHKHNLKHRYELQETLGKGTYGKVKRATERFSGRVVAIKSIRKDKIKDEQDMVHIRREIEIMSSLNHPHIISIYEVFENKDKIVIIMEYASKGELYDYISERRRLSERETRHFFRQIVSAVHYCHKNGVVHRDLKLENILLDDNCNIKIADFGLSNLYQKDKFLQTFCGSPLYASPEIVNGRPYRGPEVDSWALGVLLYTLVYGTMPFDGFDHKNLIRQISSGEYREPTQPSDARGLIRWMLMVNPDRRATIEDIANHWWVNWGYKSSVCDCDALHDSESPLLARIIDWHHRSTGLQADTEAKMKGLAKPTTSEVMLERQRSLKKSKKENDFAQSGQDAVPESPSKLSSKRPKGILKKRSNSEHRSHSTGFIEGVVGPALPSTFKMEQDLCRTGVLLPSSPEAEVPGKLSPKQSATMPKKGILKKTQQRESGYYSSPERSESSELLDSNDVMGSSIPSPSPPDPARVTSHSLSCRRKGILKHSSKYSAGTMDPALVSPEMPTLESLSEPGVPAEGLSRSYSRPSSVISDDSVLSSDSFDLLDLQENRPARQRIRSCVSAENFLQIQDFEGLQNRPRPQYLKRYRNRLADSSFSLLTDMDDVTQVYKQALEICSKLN
# method_summary: Kinase profiling (radiometric filter-binding)
# Type: biochemical
# condition_notes: NUAK1, 1 µM inhibitor; read-out: Residual activity, %
Square brackets hold non-standard residues; d marks the D form. Peptide text beside a SMILES is read from it. * marks the point of attachment. X3 = O=C(CCCCCNCc1nc2c(sc3cc(Br)cnc32)c(=O)[nH]1)*
Entry rule: numbers only, all in %.

N=C(N)NCCC[C@@H](NC(=O)CNC(=O)[C@@H](CCCNC(=N)N)NC(=O)[C@@H](CCCNC(=N)N)NC(=O)Cn1cc(CNCc2nc3c(sc4ccc(Br)cc43)c(=O)[nH]2)nn1)C(=O)N[C@H](CCCCN)C(N)=O | 74
N=C(N)NCCC[C@@H](NC(=O)CCCCCNCc1nc2c(sc3cc(Br)cnc32)c(=O)[nH]1)C(=O)N[C@H](CCCNC(=N)N)C(=O)N[C@H](CCCNC(=N)N)C(=O)N[C@H](CCCNC(=N)N)C(=O)N[C@H](CCCNC(=N)N)C(=O)N[C@H](CCCNC(=N)N)C(=O)N[C@H](CCCCN)C(N)=O [ARC-3126, BPTP-Ahx-(D-Arg)6-D-Lys-NH2] (X3-[dR][dR][dR][dR][dR][dR][dK]-NH2) | 47
N=C(N)NCCC[C@@H](NC(=O)CNC(=O)[C@@H](CCCNC(=N)N)NC(=O)[C@@H](CCCNC(=N)N)NC(=O)CCCCCCCNCc1nc2c(sc3ccc(Br)cc32)c(=O)[nH]1)C(=O)N[C@H](CCCCN)C(N)=O | 102
N=C(N)NCCC[C@@H](NC(=O)CNC(=O)[C@@H](CCCNC(=N)N)NC(=O)[C@@H](CCCNC(=N)N)NC(=O)CCCCCCCNCc1nc2c(sc3cc(Br)cnc32)c(=O)[nH]1)C(=O)N[C@H](CCCCN)C(N)=O | 95

Note: attention shifts to another entry.
Quick check: remaining activity at 1 µM of N=C(N)NCCC[C@@H](NC(=O)CCCCCNC(=O)Cn1cnc2c(I)c(I)c(I)c(I)c21)C(=O)N[C@H](CCCNC(=N)N)C(=O)N[C@H](CCCNC(=N)N)C(=O)N[C@H](CCCNC(=N)N)C(=O)N[C@H](CCCNC(=N)N)C(=O)N[C@H](CCCNC(=N)N)C(=O)N[C@H](CCCCN)C(N)=O ?
7

---

# target_system: PIM1 (Homo sapiens)
# Sequence (P11309 whole entry): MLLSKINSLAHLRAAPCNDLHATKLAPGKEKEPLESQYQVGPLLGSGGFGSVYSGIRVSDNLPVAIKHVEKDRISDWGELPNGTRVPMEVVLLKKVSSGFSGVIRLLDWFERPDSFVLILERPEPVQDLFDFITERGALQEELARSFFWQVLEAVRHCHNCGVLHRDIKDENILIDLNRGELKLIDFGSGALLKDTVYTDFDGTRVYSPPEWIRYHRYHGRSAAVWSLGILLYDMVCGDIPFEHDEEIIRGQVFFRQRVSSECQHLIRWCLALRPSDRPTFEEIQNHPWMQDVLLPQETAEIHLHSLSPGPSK
# method_summary: Kinase profiling (radiometric filter-binding)
# Type: biochemical
# condition_notes: PIM1, 1 µM inhibitor; read-out: Residual activity, %
Square brackets hold non-standard residues; d marks the D form. Peptide text beside a SMILES is read from it. * marks the point of attachment. X3 = O=C(CCCCCNCc1nc2c(sc3cc(Br)cnc32)c(=O)[nH]1)*
endpoint: remaining activity at 1 µM (%)
Entry rule: numbers only, all in %.

N=C(N)NCCC[C@@H](NC(=O)CCCCCNCc1nc2c(sc3cc(Br)cnc32)c(=O)[nH]1)C(=O)N[C@H](CCCNC(=N)N)C(=O)N[C@H](CCCNC(=N)N)C(=O)N[C@H](CCCNC(=N)N)C(=O)N[C@H](CCCNC(=N)N)C(=O)N[C@H](CCCNC(=N)N)C(=O)N[C@H](CCCCN)C(N)=O [ARC-3126, BPTP-Ahx-(D-Arg)6-D-Lys-NH2] (X3-[dR][dR][dR][dR][dR][dR][dK]-NH2) | 0
N=C(N)NCCC[C@@H](NC(=O)CCCCCNC(=O)Cn1cnc2c(I)c(I)c(I)c(I)c21)C(=O)N[C@H](CCCNC(=N)N)C(=O)N[C@H](CCCNC(=N)N)C(=O)N[C@H](CCCNC(=N)N)C(=O)N[C@H](CCCNC(=N)N)C(=O)N[C@H](CCCNC(=N)N)C(=O)N[C@H](CCCCN)C(N)=O | 0

Quick check: remaining activity at 1 µM of N=C(N)NCCC[C@@H](NC(=O)CNC(=O)[C@@H](CCCNC(=N)N)NC(=O)[C@@H](CCCNC(=N)N)NC(=O)CCCCCCCNCc1nc2c(sc3cc(Br)cnc32)c(=O)[nH]1)C(=O)N[C@H](CCCCN)C(N)=O ?
9

Quick check: remaining activity at 1 µM of N=C(N)NCCC[C@@H](NC(=O)CNC(=O)[C@@H](CCCNC(=N)N)NC(=O)[C@@H](CCCNC(=N)N)NC(=O)Cn1cc(CNCc2nc3c(sc4ccc(Br)cc43)c(=O)[nH]2)nn1)C(=O)N[C@H](CCCCN)C(N)=O ?
5

Quick check: remaining activity at 1 µM of N=C(N)NCCC[C@@H](NC(=O)CNC(=O)[C@@H](CCCNC(=N)N)NC(=O)[C@@H](CCCNC(=N)N)NC(=O)CCCCCCCNCc1nc2c(sc3ccc(Br)cc32)c(=O)[nH]1)C(=O)N[C@H](CCCCN)C(N)=O ?
5

---

# remaining activity at 1 µM annotations
# target_system: DYRK3 (Homo sapiens)
# Sequence (O43781 1-588): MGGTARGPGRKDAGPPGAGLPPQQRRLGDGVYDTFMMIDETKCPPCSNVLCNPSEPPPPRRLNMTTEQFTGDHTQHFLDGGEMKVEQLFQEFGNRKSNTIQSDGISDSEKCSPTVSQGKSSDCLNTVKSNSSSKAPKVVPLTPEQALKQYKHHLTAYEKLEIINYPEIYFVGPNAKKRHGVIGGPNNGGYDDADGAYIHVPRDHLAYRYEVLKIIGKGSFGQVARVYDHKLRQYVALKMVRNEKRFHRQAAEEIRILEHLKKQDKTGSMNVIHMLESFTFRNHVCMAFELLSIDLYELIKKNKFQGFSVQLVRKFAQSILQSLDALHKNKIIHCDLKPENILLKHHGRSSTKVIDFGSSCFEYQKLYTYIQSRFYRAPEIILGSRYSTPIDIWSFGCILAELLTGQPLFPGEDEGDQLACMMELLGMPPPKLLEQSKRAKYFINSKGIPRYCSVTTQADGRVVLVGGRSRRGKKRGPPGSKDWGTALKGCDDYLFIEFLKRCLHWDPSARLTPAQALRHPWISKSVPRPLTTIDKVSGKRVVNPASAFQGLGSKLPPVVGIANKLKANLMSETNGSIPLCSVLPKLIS
# method_summary: Kinase profiling (radiometric filter-binding)
# Format: biochemical
# condition_notes: DYRK3, 1 µM inhibitor; read-out: Residual activity, %
Square brackets hold non-standard residues; d marks the D form. Peptide text beside a SMILES is read from it. * marks the point of attachment. X3 = O=C(CCCCCNCc1nc2c(sc3cc(Br)cnc32)c(=O)[nH]1)*

Solved cases (4 shown):
N=C(N)NCCC[C@@H](NC(=O)CNC(=O)[C@@H](CCCNC(=N)N)NC(=O)[C@@H](CCCNC(=N)N)NC(=O)CCCCCCCNCc1nc2c(sc3cc(Br)cnc32)c(=O)[nH]1)C(=O)N[C@H](CCCCN)C(N)=O | 43%
N=C(N)NCCC[C@@H](NC(=O)CCCCCNC(=O)Cn1cnc2c(I)c(I)c(I)c(I)c21)C(=O)N[C@H](CCCNC(=N)N)C(=O)N[C@H](CCCNC(=N)N)C(=O)N[C@H](CCCNC(=N)N)C(=O)N[C@H](CCCNC(=N)N)C(=O)N[C@H](CCCNC(=N)N)C(=O)N[C@H](CCCCN)C(N)=O | 22%
N=C(N)NCCC[C@@H](NC(=O)CNC(=O)[C@@H](CCCNC(=N)N)NC(=O)[C@@H](CCCNC(=N)N)NC(=O)CCCCCCCNCc1nc2c(sc3ccc(Br)cc32)c(=O)[nH]1)C(=O)N[C@H](CCCCN)C(N)=O | 34%
N=C(N)NCCC[C@@H](NC(=O)CNC(=O)[C@@H](CCCNC(=N)N)NC(=O)[C@@H](CCCNC(=N)N)NC(=O)Cn1cc(CNCc2nc3c(sc4ccc(Br)cc43)c(=O)[nH]2)nn1)C(=O)N[C@H](CCCCN)C(N)=O | 55%

Note: attention shifts to another entry.
Quick check: remaining activity at 1 µM of N=C(N)NCCC[C@@H](NC(=O)CCCCCNCc1nc2c(sc3cc(Br)cnc32)c(=O)[nH]1)C(=O)N[C@H](CCCNC(=N)N)C(=O)N[C@H](CCCNC(=N)N)C(=O)N[C@H](CCCNC(=N)N)C(=O)N[C@H](CCCNC(=N)N)C(=O)N[C@H](CCCNC(=N)N)C(=O)N[C@H](CCCCN)C(N)=O [ARC-3126, BPTP-Ahx-(D-Arg)6-D-Lys-NH2] (X3-[dR][dR][dR][dR][dR][dR][dK]-NH2) ?
82%
